- EXPERIMENT NOTES: Acute toxicity after i.v. administration in NMRI-mice (Litchfield and Wilcoxon)
- MEASUREMENT SETUP: mouse, in vivo, iv, both sexes, deaths within 14 days, read-out: LD50 in the mouse after i.v. application
Each entry falls into one class according to its LD50 at 336 h; the ranges are A (below 20 mg/kg), B (20 mg/kg to below 30 mg/kg), C (30 mg/kg or more)

CNCCCN1c2ccccc2N(C)C(=O)c2cccnc21.Cl [D]	C

# bin label for CCN(CC)CCN1c2ccccc2N(C)C(=O)c2cccnc21.Cl [G]
B

# bin label for CN1C(=O)c2cccnc2N(CCCN2CCCCC2)c2ccccc21.Cl [M]
A

# bin label for CN1C(=O)c2cccnc2N(CCCN2CCCCCC2)c2ccccc21.Cl [N]
A

# bin label for CCN(CC)CCCN1c2ccccc2N(C)C(=O)c2cccnc21.Cl [A]
C

# bin label for CCNCCCN1c2ccccc2N(C)C(=O)c2cccnc21.Cl [E]
C

# bin label for CCCN(CCC)CCCN1c2ccccc2N(C)C(=O)c2cccnc21.Cl [H]
B

# bin label for CC(C)N(CCCN1c2ccccc2N(C)C(=O)c2cccnc21)C(C)C.Cl [J]
B

----------
- System: heart rate
- EXPERIMENT NOTES: Effect on heart rate of the anesthetized cat after intravenous administration
- Type: in vivo
- Design: key: --: decrease in heart rate
- MEASUREMENT SETUP: i.v., tested dosage range 250 - 4,000 γ/kg (A 12.5 - 16,000; W 125 - 4,000)
ENDPOINT LABEL: type of the reaction (heart rate)

CN1C(=O)c2ccccc2N(CCCN2CCCC2)c2ncccc21.Cl [U]	--
CC(C)N(CCCN1c2ccccc2N(C)C(=O)c2cccnc21)C(C)C.Cl [J]	--
CN1C(=O)c2cccnc2N(CCCN2CCCCC2)c2ccccc21.Cl [M]	--

----------
- Test system: acetylcholine-induced bronchospasm
- EXPERIMENT NOTES: Antagonism to acetylcholine-provoked bronchospasm in anesthetized guinea pigs (Konzett and Rossler), i.v.; antiasthmatic / bronchospasmolytic activity
- Assay type: in vivo
- MEASUREMENT SETUP: guinea pig
# Average duration of effective action in the ED50 range per entry

CN1C(=O)c2ccccc2N(CCCN2CCCCCC2)c2ncccc21.Cl	> 40 min
CN(C)CCCN1c2ccccc2C(=O)N(C)c2cccnc21	> 50 min
CCCN(CCC)CCCN1c2ccccc2N(C)C(=O)c2cccnc21.Cl	> 70 min
CC(C)N(CCCN1c2ccccc2C(=O)N(C)c2cccnc21)C(C)C.Cl	50 min
CN1C(=O)c2cccnc2N(CCCN2CCCCC2)c2ccccc21.Cl	> 60 min
CN1C(=O)c2cccnc2N(CCCN2CCCC2)c2ccccc21.Cl	120 min

Identify measured Average duration of effective action in the ED50 range corresponding to CN(C)CCN1c2ccccc2N(C)C(=O)c2cccnc21.Cl
> 110 min
